Consider the following compounds and their measured melting point readings.

CCC(C)(C)c1onc(N2C(=O)C(OC)=C(C)C2O)c1C#N (centres unmarked) [D5] | 79 to 81 °C

Query compound follows.
Per the record, COC1=C(C)C(O)N(c2noc(C(C)(C)C)c2C#N)C1=O (centres unmarked) [D2] has melting point of 98 to 100 °C

====

Consider the following compounds and their measured Pre-emergence herbicidal damage score, ECHCG readings.
system: a variety of test species; assay: Pre-emergence herbicidal activity (glasshouse, sprayed one day after sowing, evaluated after 13 days); format: in vivo; set-up: key: 5=total damage to plant; 0=no damage to plant; settings: ECHCG, application pre-emergence, rate 1000 g/Ha, scale 0-5
Reply with just the number.

CC(C)(C)c1cc(N2C(=O)C(Cl)=C(N)C2O)no1 (centres unmarked) [C6] | 5
COCC(C)(C)c1cc(N2C(=O)C(Cl)=C(C)C2O)no1 (centres unmarked) [A7] | 4
CCC1=C(Br)C(=O)N(c2noc(C(C)(C)C)c2C#N)C1O (centres unmarked) [A55] | 5

Per the record, CC1=C(Cl)C(=O)N(c2cc(C3CCC3)on2)C1O (centres unmarked) [A21] has Pre-emergence herbicidal damage score, ECHCG of 5

Per the record, CC(C)C1=C(Cl)C(=O)N(c2cc(C(C)(C)C)on2)C1O (centres unmarked) [A18] has Pre-emergence herbicidal damage score, ECHCG of 2

====

tested on: a variety of test species; assay: Pre-emergence herbicidal activity (glasshouse, sprayed one day after sowing, evaluated after 13 days); assay type: in vivo; conditions: ZEAMX, application pre-emergence, rate 1000 g/Ha, scale 0-5
ASSAY READOUT: Pre-emergence herbicidal damage score, ZEAMX
Reply with just the number.

CCC(C)c1onc(N2C(=O)C(Cl)=C(C)C2O)c1C#N (stereo not drawn) | 1
CC1=C(Cl)C(=O)N(c2noc(C(C)(C)C)c2C#N)C1OC(=O)C(C)(C)C (stereo not drawn) | 3

Query compound follows.
Per the record, CC1=C(Br)C(=O)N(c2noc(C(C)C)c2C#N)C1O (stereo not drawn) has Pre-emergence herbicidal damage score, ZEAMX of 3

====

tested on: a variety of test species; assay: Pre-emergence herbicidal activity (glasshouse, sprayed one day after sowing, evaluated after 13 days); type: in vivo; design: key: 5=total damage to plant; 0=no damage to plant; details: ABUTH, application pre-emergence, rate 1000 g/Ha, scale 0-5
Consider the following compounds and their measured Pre-emergence herbicidal damage score, ABUTH readings.
Reply with just the number.

Some entries whose results are on file:
C#CCNC1=C(Cl)C(=O)N(c2cc(C(C)(C)C)on2)C1O (stereo not drawn) [C5] | 5
C=CCC(C)(C)c1cc(N2C(=O)C(Cl)=C(C)C2O)no1 (stereo not drawn) [A28] | 5
CC1=C(Cl)C(=O)N(c2noc(C(C)C)c2C#N)C1O (stereo not drawn) [A44] | 5
CC1=C(Cl)C(=O)N(c2cc(C(C)(C)C)on2)C1 [A101] | 5
CCC1=C(Cl)C(=O)N(c2cc(C(C)(C)C)on2)C1O (stereo not drawn) [A16] | 5

Per the record, CCC(C)(C)c1onc(N2CC(C)=C(OC)C2=O)c1C#N [D13] has Pre-emergence herbicidal damage score, ABUTH of 2

Per the record, CC1=C(Cl)C(=O)N(c2cc(C(C)(C)C#N)on2)C1O (stereo not drawn) [A42] has Pre-emergence herbicidal damage score, ABUTH of 5

====

Consider the following compounds and their measured melting point readings.

Some entries whose results are on file:
CCC(C)(C)c1onc(N2CC(C)=C(OC)C2=O)c1C#N | 72 to 74 °C
CCOC1=C(C)CN(c2cc(C(C)(C)C#N)on2)C1=O | 127 to 129 °C
COC1=C(C)CN(c2noc(C(C)(C)C)c2C#N)C1=O | 138 to 140 °C
CC1=C(Cl)C(=O)N(c2cc(C3CCC3)on2)C1O (stereo not drawn) | 130 to 132 °C
CCCC(C)(C)c1cc(N2C(=O)C(Cl)=C(C)C2O)no1 (stereo not drawn) | 96 to 98 °C

Per the record, CCC1=C(Cl)C(=O)N(c2noc(C(C)(C)CC)c2C#N)C1O (stereo not drawn) has melting point of 110 to 112 °C

Per the record, COC1=C(C)CN(c2cc(C(C)(C)C#N)on2)C1=O has melting point of 103 to 105 °C

Per the record, CCCC1=C(Br)C(=O)N(c2noc(C(C)(C)C)c2C#N)C1O (stereo not drawn) has melting point of 123 to 124 °C

Per the record, C=CCC(C)(C)c1cc(N2C(=O)C(Cl)=C(C)C2O)no1 (stereo not drawn) has melting point of 107 to 109 °C

Per the record, CCC(C)(C)c1cc(N2C(=O)C(Cl)=C(C)C2O)no1 (stereo not drawn) has melting point of 103 to 105 °C

Per the record, CCCC(C)(C)c1onc(N2C(=O)C(Cl)=C(C)C2O)c1C#N (stereo not drawn) has melting point of 113 to 115 °C

Per the record, CC1=C(Cl)C(=O)N(c2cc(CC(C)C)on2)C1O (stereo not drawn) has melting point of 138 to 140 °C

Per the record, COC1=C(Cl)C(O)N(c2cc(C(C)(C)C)on2)C1=O (stereo not drawn) [E1] has melting point of 123 to 133 °C

Per the record, C=CCNC1=C(Cl)C(=O)N(c2cc(C(C)(C)C)on2)C1O (stereo not drawn) has melting point of 163 to 164 °C

Per the record, CCCC1=C(Cl)C(=O)N(c2noc(C(C)(C)CC)c2C#N)C1O (stereo not drawn) has melting point of 82 to 84 °C

Per the record, CC1=C(Cl)C(=O)N(c2noc(C(C)(C)C)c2Cl)C1O (stereo not drawn) has melting point of 143 to 145 °C

Per the record, CCC1=C(Cl)C(=O)N(c2cc(C(C)(C)C#N)on2)C1O (stereo not drawn) has melting point of 101 to 102 °C

Per the record, CC1=C(Cl)C(=O)N(c2cc(C3(C)CC3)on2)C1O (stereo not drawn) has melting point of 177 to 178 °C

====

Tested on: a variety of test species
Assay: Pre-emergence herbicidal activity (glasshouse, sprayed one day after sowing, evaluated after 13 days)
Assay type: in vivo
Details: ABUTH, application pre-emergence, rate 1000 g/Ha, scale 0-5
Procedure: Seeds of a variety of test species were sown in standard soil in pots. […] After 13 days, the test was evaluated (5=total damage to plant; 0=no damage to plant).
ASSAY READOUT: Pre-emergence herbicidal damage score, ABUTH
Reply with just the number.

Some entries whose results are on file:
COC1=C(C)CN(c2noc(C(C)C)c2C#N)C1=O | 4
CC(C)(C)c1cc(N2C(=O)C(Cl)=C(N)C2O)no1 (centres unmarked) | 5
COC1=C(C)C(=O)N(c2noc(C(C)C)c2C#N)C1O (centres unmarked) | 4

The observed Pre-emergence herbicidal damage score, ABUTH for CCC1=C(Cl)C(=O)N(c2noc(C(C)(C)C)c2C#N)C1O (centres unmarked) when tested with a variety of test species stands at 5

The observed Pre-emergence herbicidal damage score, ABUTH for CC1=C(Cl)C(=O)N(c2cc(C3CCCCC3)on2)C1O (centres unmarked) when tested with a variety of test species stands at 3
